Biological target: human GPC3 on cells (human, UniProt P51654 25-554)
Experiment: cell-based or functional assay
MEASURED_PROPERTY: EC50 of ADCC cytotoxicity (primary NK cells, LDH), Huh-7 cells (pM)
One number for each entry, in pM.

Prompt line: Give the measured EC50 of ADCC cytotoxicity (primary NK cells, LDH), Huh-7 cells for 52H5D3B8-18#-VH2+VL3 (antibody, V domains shown) VH: QVQLVQSGAEVKKPGASVKVSCKASGYTFTRYEMHWVRQAPGQGLEWIGAIHPGSGGTAYNSKFKGRVTMTADTSTSTVYMELSSLRSEDTAVYYCTRYYSYAYWGQGTLVTVSS VL: DIVMTQTPLSLSVTPGQPASISCRSSQSLVHSNGNTYLQWYLQKPGQSPKLLIYKVSNRYSGVPDRFSGSGSGTDFTLKISRVEAEDVGVYYCVESIHVPYTFGGGTKLEIK
Response line: 82.6

These entries and their values trace back to patent US20240409663A1.
